# key: entry, value: log10 IC50
Molecular target: Histone deacetylase 1 (Homo sapiens, UniProt Q13547)
Sequence (Q13547 whole entry): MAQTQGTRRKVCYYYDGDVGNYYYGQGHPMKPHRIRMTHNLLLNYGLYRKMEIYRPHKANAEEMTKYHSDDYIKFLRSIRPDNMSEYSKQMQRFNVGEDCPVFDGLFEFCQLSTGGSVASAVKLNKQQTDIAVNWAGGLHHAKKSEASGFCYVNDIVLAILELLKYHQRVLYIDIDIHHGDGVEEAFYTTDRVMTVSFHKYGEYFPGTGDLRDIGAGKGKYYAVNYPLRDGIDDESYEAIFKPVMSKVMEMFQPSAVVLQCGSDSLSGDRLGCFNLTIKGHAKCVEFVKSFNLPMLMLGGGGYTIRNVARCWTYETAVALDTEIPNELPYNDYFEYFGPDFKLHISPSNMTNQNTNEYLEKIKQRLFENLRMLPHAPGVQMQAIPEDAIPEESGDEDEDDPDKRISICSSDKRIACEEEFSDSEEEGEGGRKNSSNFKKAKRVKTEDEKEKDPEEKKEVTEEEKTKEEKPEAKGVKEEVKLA
Assay: Inhibition of human HDAC 1
readout name: log10 IC50 (log10 of the value in nM)

>>> experimental_value("O=C(CCCCC[C@H](NC(=O)OCc1ccccc1)C(=O)Nc1ccc2ncccc2c1)NO")
0.89
>>> experimental_value("O=C(CCCCC[C@H](NC(=O)c1ccc2ccccc2n1)C(=O)NCc1ccccc1)NO")
1.71
>>> experimental_value("O=C(CCCCC[C@H](NC(=O)c1ccc2ccccc2n1)C(=O)Nc1ccccc1)NO")
1.00
>>> experimental_value("O=C(CCCCC[C@H](NC(=O)c1ccccc1)C(=O)Nc1ccc2ncccc2c1)NO")
0.54
>>> experimental_value("O=C(CCCCC[C@H](NC(=O)c1ccccc1)C(=O)Nc1cccc2cccnc12)NO")
0.97

###

Test: Antiproliferative activity against mouse SC9 cells by MTS assay
Format: functional, cell-based
pIC50: −log10 of the molar value.
readout name: pIC50

>>> experimental_value("O=C(CCCCC[C@H](NC(=O)c1ccccn1)C(=O)Nc1cccc2cccnc12)NO")
6.44
>>> experimental_value("O=C(CCCCC[C@H](NC(=O)c1ccccn1)C(=O)Nc1ccc2ncccc2c1)NO")
6.12
>>> experimental_value("O=C(CCCCC[C@H](NC(=O)c1ccc2ccccc2n1)C(=O)NCc1ccccc1)NO")
6.43
>>> experimental_value("O=C(CCCCC[C@H](NC(=O)c1ccccc1)C(=O)Nc1ccc2ncccc2c1)NO")
7.05
>>> experimental_value("O=C(CCCCC[C@H](NC(=O)OCc1ccccc1)C(=O)Nc1ccc2ncccc2c1)NO")
6.96
>>> experimental_value("O=C(CCCCC[C@H](NC(=O)c1ccccc1)C(=O)NCc1ccccc1)NO")
5.98
>>> experimental_value("O=C(CCCCC[C@H](NC(=O)c1ccc2ccccc2n1)C(=O)Nc1cccc2cccnc12)NO")
6.78
>>> experimental_value("O=C(CCCCC[C@H](NC(=O)c1ccc2ccccc2n1)C(=O)Nc1ccccc1)NO")
7.48
>>> experimental_value("O=C(CCCCC[C@H](NC(=O)c1ccccn1)C(=O)Nc1ccccc1)NO")
6.60
>>> experimental_value("O=C(CCCCC[C@H](NC(=O)c1ccccc1)C(=O)Nc1ccccc1)NO")
7.14
>>> experimental_value("O=C(CCCCC[C@H](NC(=O)OCc1ccccc1)C(=O)Nc1cccc2cccnc12)NO")
7.41
>>> experimental_value("O=C(CCCCC[C@H](NC(=O)c1ccccn1)C(=O)NCc1ccccc1)NO")
5.47
>>> experimental_value("O=C(CCCCC[C@H](NC(=O)c1ccc2ccccc2n1)C(=O)Nc1ccc2ncccc2c1)NO")
6.97
>>> experimental_value("O=C(CCCCC[C@H](NC(=O)OCc1ccccc1)C(=O)Nc1ccccc1)NO")
6.99
>>> experimental_value("O=C(CCCCC[C@H](NC(=O)OCc1ccccc1)C(=O)NCc1ccccc1)NO")
6.39
>>> experimental_value("O=C(CCCCC[C@H](NC(=O)c1ccccc1)C(=O)Nc1cccc2cccnc12)NO")
7.37
